Target: T1, biotinylated A93D-PNT domain (ETV6 residues 43-135, A93D, with Avitag) (human, UniProt P41212 43-135, A93D, biotin on the Avitag (~50 to 95% biotinylated))
T1 construct: ETV6, human, residues 43-135; made from the V112E construct by introducing A93D and E112V; also called biotinylated A93D-PNT domain ligand; A93D-PNT domain ligand; source: E. coli BL21 (λDE3) co-transformed with pET21a-BirA, purified (Ni-NTA, thrombin cleavage); not shown: His6, N-terminal, cleaved; Avitag, N-terminal, kept
T1 sequence (looked up): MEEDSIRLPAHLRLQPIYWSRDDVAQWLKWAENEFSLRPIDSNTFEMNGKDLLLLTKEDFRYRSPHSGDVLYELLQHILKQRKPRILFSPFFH
Assay: SPR; biotinylated A93D-PNT domain ligand captured on streptavidin Sensor Chip SA, PNT domain analytes flowed; Biacore X100, 25 °C, HBS-EP+ (10 mM HEPES, 150 mM NaCl, 3 mM EDTA, 0.05% v/v Tween-20, pH 7.4); analyte 0.2-60 nM, re-run at 20-6000 nM if KD > 60 nM
Details: both partners purified
Please respond with reported koff for every item in the list.
The reply should contain only the number, in s⁻¹.

I'd like to know its koff. The binder in question is N90A-V112E-PNT domain (domain or fragment, human, UniProt P41212 40-125, looked up, ETV6 PNT domain, human; gene purchased commercially (Biomatik); source: E. coli BL21 (λDE3), purified (Ni-NTA, thrombin cleavage); not shown: His6, N-terminal, cleaved) ALRMEEDSIRLPAHLRLQPIYWSRDDVAQWLKWAENEFSLRPIDSNTFEMAGKALLLLTKEDFRYRSPHSGDELYELLQHILKQRK
0.037

And R63A-V112E-PNT domain (domain or fragment, human, UniProt P41212 40-125, looked up, ETV6 PNT domain, human; source: E. coli BL21 (λDE3), purified (Ni-NTA, thrombin cleavage); not shown: His6, N-terminal, cleaved) ALRMEEDSIRLPAHLRLQPIYWSADDVAQWLKWAENEFSLRPIDSNTFEMNGKALLLLTKEDFRYRSPHSGDELYELLQHILKQRK ?
0.0054

And then T98A-V112E-PNT domain (domain or fragment, human, UniProt P41212 40-125, looked up, ETV6 PNT domain, human; source: E. coli BL21 (λDE3), purified (Ni-NTA, thrombin cleavage); not shown: His6, N-terminal, cleaved) ALRMEEDSIRLPAHLRLQPIYWSRDDVAQWLKWAENEFSLRPIDSNTFEMNGKALLLLAKEDFRYRSPHSGDELYELLQHILKQRK , what is it?
0.0054

Then this binder: L96A-V112E-PNT domain (domain or fragment, human, UniProt P41212 40-125, looked up, ETV6 PNT domain, human; source: E. coli BL21 (λDE3), purified (Ni-NTA, thrombin cleavage); not shown: His6, N-terminal, cleaved) ALRMEEDSIRLPAHLRLQPIYWSRDDVAQWLKWAENEFSLRPIDSNTFEMNGKALLALTKEDFRYRSPHSGDELYELLQHILKQRK
0.0095

// same read-out, input: K92A-V112E-PNT domain (domain or fragment, human, UniProt P41212 40-125, looked up, ETV6 PNT domain, human; source: E. coli BL21 (λDE3), purified (Ni-NTA, thrombin cleavage); not shown: His6, N-terminal, cleaved) ALRMEEDSIRLPAHLRLQPIYWSRDDVAQWLKWAENEFSLRPIDSNTFEMNGAALLLLTKEDFRYRSPHSGDELYELLQHILKQRK
0.022
